// data source = patent US20100015141A1

So I've got a bunch of compounds here, and I need their pIC50 values.
Target or test system: PI3K-γ (Homo sapiens, UniProt P48736)
Sequence (P48736 whole entry, species assumed): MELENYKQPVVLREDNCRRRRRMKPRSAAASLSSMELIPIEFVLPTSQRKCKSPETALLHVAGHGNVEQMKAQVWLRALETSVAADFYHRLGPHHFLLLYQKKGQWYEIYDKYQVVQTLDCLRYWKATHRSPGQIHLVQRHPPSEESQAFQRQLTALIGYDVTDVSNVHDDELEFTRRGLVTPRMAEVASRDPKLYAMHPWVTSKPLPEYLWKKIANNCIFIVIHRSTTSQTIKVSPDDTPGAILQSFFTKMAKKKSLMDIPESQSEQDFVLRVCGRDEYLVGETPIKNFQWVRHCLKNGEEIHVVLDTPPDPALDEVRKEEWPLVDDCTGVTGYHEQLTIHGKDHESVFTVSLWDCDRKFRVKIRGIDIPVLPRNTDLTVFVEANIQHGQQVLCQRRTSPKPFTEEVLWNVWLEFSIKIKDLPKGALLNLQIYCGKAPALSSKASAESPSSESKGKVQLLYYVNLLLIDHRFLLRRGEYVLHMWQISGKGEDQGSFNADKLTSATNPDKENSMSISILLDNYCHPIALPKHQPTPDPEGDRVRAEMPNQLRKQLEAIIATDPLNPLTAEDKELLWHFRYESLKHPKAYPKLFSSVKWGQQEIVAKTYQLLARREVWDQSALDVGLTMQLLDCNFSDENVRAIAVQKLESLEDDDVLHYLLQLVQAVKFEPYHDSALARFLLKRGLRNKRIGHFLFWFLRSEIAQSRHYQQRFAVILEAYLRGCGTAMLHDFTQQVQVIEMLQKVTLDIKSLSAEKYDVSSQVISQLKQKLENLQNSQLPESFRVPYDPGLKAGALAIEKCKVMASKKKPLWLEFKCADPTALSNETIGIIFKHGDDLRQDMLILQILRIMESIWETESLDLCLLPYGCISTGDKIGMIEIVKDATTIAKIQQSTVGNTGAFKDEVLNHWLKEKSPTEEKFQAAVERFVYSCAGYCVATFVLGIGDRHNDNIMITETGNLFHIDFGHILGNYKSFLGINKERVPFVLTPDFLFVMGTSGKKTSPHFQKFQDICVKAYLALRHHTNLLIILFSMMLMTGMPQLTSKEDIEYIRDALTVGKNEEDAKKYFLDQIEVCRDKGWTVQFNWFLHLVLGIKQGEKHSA
Run description: PI3K-gamma fluorescence polarization assay
Assay type: biochemical
Protocol conditions: 20 μM PIP2, 25 μM ATP
As a rule, pIC50 stands for the negative log10 of the concentration, concentration in M.

For the compound shown here, COc1ccc(Nc2nc(-c3cccc(O)c3)nc3c2cnn3C2CCNCC2)cc1OC , give the reported pIC50.
5.23

For the compound shown here, CC(C)c1ccc(-c2nc(Oc3ccc4[nH]ccc4c3)c3cnn(C)c3n2)cc1 , give the reported pIC50.
4.97

For the compound shown here, Cc1noc(C)c1-c1nc(Oc2ccc3[nH]ccc3c2)c2cnn(C)c2n1 , give the reported pIC50.
5.87

---

Target or test system: mTOR (Homo sapiens)
Run description: mTOR enzyme assay (DELFIA, His6-S6K phosphorylation)
Format: biochemical
Set-up: FLAG
Protocol conditions: 100 μM ATP, 1.25 μM His6-S6K
So I've got a bunch of molecules here, and I need their log10(IC50) values.
Scale: log10; quantity: IC50; unit before log: nM

For the molecule shown here, CN(C)CCNC(=O)Nc1ccc(Nc2nc(Nc3ccc(C(N)=O)cc3)c3cnn(C)c3n2)cc1 , give the reported log10(IC50).
3.34

For the molecule shown here, CNC(=O)Nc1ccc(-c2nc(Nc3ccc(C(N)=O)cc3)c3cnn(C)c3n2)cc1 , give the reported log10(IC50).
3.23

For the molecule shown here, Cn1ncc2c(Oc3ccc4[nH]ccc4c3)nc(-c3cccnc3)nc21 , give the reported log10(IC50).
3.86

For the molecule shown here, CC(=O)Nc1ccc(N(C)c2nc(-c3ccccc3)nc3c2cnn3C)cc1 , give the reported log10(IC50).
3.67

For the molecule shown here, CN1Cc2cc(Nc3nc(Nc4ccc(NC(=O)Nc5cccnc5)cc4)nc4c3cnn4C)ccc2C1=O , give the reported log10(IC50).
1.83

For the molecule shown here, CC(=O)Nc1ccc(Oc2nc(-c3ccc4[nH]ccc4c3)nc3c2cnn3C)cc1 , give the reported log10(IC50).
2.76

For the molecule shown here, Cn1ncc2c(Nc3ccc(C(N)=O)cc3)nc(Nc3ccc(NC(=O)NC4CC4)cc3)nc21 , give the reported log10(IC50).
1.64

For the molecule shown here, Cn1ncc2c(Oc3ccc4[nH]ccc4c3)nc(-c3ccccc3)nc21 , give the reported log10(IC50).
2.52

For the molecule shown here, Cc1noc(C)c1-c1nc(Nc2ccc(C(N)=O)cc2)c2cnn(C)c2n1 , give the reported log10(IC50).
3.45

For the molecule shown here, Cn1ncc2c(Nc3ccc(C(N)=O)cc3)nc(Nc3cccc(NC(=O)Nc4cccnc4)c3)nc21 , give the reported log10(IC50).
3.54

For the molecule shown here, CN(C)C1CCN(C(=O)c2ccc(NC(=O)Nc3ccc(Nc4nc(Nc5ccc(C(N)=O)cc5)c5cnn(C)c5n4)cc3)cc2)CC1 , give the reported log10(IC50).
0.85

For the molecule shown here, Cn1ncc2c(Oc3ccc4[nH]ccc4c3)nc(-c3ccc(-c4ccccc4)cc3)nc21 , give the reported log10(IC50).
4.20

For the molecule shown here, CN(c1ccc(C(N)=O)cc1)c1nc(-c2ccccc2)nc2c1cnn2C , give the reported log10(IC50).
4.20

For the molecule shown here, CN(C)CCN(C)C(=O)c1ccc(NC(=O)Nc2ccc(Nc3nc(Nc4ccc(C(N)=O)cc4)c4cnn(C)c4n3)cc2)cc1 , give the reported log10(IC50).
0.95

For the molecule shown here, COc1ccc(Oc2nc(-c3ccccc3)nc3c2cnn3C)cc1OC , give the reported log10(IC50).
3.91

For the molecule shown here, Cn1cc(-c2nc(Nc3ccc(C(N)=O)cc3)c3cnn(C)c3n2)cn1 , give the reported log10(IC50).
3.68

For the molecule shown here, CN1CCN(C(=O)c2ccc(NC(=O)Nc3ccc(Nc4nc(Nc5ccc(C(N)=O)cc5)c5cnn(C)c5n4)cc3)cc2)CC1 , give the reported log10(IC50).
1.23

For the molecule shown here, Cn1ncc2c(Nc3ccc(C(N)=O)cc3)nc(-c3ccoc3)nc21 , give the reported log10(IC50).
3.11

For the molecule shown here, CN(C)C(=O)c1ccc(Nc2nc(Nc3ccc(NC(=O)Nc4cccnc4)cc3)nc3c2cnn3C)cc1 , give the reported log10(IC50).
1.08

For the molecule shown here, Cn1ncc2c(Nc3ccc(C(N)=O)cc3)nc(-c3ccccc3)nc21 , give the reported log10(IC50).
2.98

For the molecule shown here, Cn1ncc2c(Oc3ccc4[nH]ccc4c3)nc(-c3cccc(C#N)c3)nc21 , give the reported log10(IC50).
3.92

For the molecule shown here, CC(=O)Nc1ccc(Oc2nc(-c3cccc(O)c3)nc3c2cnn3C)cc1 , give the reported log10(IC50).
3.32

---

Target or test system: mTOR (Homo sapiens, UniProt P42345)
Run description: mTOR enzyme assay (DELFIA, His6-S6K phosphorylation)
Assay type: biochemical
Design: FLAG
Protocol conditions: 100 μM ATP, 1.25 μM His6-S6K
pIC50: −log10 of the molar value.
Label True when pIC50 is at or above 6; anything below gets False.

Decide: is the reported value of pIC50 for CC(=O)Nc1ccc(Oc2nc(-c3ccccc3)nc3c2cnn3C)cc1 equal to or greater than 6?
False

Decide: is the reported value of pIC50 for CC(C)NC(=O)Nc1ccc(Nc2nc(Nc3ccc(C(N)=O)cc3)c3cnn(C)c3n2)cc1 equal to or greater than 6?
True

Decide: is the reported value of pIC50 for CC(=O)Nc1ccc(Oc2nc(-c3ccc(O)cc3)nc3c2cnn3C)cc1 equal to or greater than 6?
False

Decide: is the reported value of pIC50 for COc1cccc(-c2nc(Oc3ccc4[nH]ccc4c3)c3cnn(C)c3n2)c1 equal to or greater than 6?
False

Decide: is the reported value of pIC50 for CN(CCO)C(=O)c1ccc(NC(=O)Nc2ccc(Nc3nc(Nc4ccc(C(N)=O)cc4)c4cnn(C)c4n3)cc2)cc1 equal to or greater than 6?
True

Decide: is the reported value of pIC50 for Cn1ncc2c(Nc3ccc4c(c3)CNC4=O)nc(Nc3ccc(NC(=O)Nc4cccnc4)cc3)nc21 equal to or greater than 6?
True

Decide: is the reported value of pIC50 for Cn1ncc2c(Oc3ccc4[nH]ccc4c3)nc(-c3cccc([N+](=O)[O-])c3)nc21 equal to or greater than 6?
False

Decide: is the reported value of pIC50 for COc1ccc(-c2nc(Oc3ccc4[nH]ccc4c3)c3cnn(C)c3n2)cc1OC equal to or greater than 6?
False

---

Target or test system: PI3K-δ (Homo sapiens, UniProt O00329)
Sequence (O00329 whole entry, species assumed, one chain of several): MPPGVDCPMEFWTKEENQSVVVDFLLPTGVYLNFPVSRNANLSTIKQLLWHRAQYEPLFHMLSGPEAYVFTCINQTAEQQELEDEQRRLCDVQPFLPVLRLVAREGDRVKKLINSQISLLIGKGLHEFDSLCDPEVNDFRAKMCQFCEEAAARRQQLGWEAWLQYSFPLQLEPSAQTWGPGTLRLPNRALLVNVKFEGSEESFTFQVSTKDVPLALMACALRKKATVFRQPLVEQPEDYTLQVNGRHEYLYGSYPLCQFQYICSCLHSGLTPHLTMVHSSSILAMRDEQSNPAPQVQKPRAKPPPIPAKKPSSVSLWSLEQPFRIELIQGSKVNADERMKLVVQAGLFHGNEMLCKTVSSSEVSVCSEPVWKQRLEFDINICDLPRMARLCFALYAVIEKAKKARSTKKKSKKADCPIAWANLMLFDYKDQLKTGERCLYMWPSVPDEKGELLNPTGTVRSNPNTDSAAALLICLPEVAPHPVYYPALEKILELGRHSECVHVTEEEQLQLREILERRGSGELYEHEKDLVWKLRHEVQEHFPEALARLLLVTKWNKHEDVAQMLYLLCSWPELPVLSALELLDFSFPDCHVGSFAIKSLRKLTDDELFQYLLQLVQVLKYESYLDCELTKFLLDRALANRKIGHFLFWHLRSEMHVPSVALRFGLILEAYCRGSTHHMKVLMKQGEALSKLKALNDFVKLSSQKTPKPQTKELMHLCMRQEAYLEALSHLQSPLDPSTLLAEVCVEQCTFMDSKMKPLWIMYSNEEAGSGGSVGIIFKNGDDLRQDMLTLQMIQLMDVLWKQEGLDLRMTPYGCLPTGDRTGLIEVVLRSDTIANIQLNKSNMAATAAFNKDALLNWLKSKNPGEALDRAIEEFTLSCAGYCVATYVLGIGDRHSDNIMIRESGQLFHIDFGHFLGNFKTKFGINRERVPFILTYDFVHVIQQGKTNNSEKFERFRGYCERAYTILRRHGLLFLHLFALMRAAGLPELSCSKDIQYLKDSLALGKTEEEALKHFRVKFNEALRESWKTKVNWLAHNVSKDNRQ
So I've got a bunch of molecules here, and I need their pIC50 values.
As a rule, pIC50 stands for the negative log10 of the concentration, concentration in M.

For the molecule shown here, COc1cccc(-c2nc(Oc3ccc(NC(C)=O)cc3)c3cnn(C)c3n2)c1 [Example 49] , give the reported pIC50.
6.87

For the molecule shown here, COc1ccc(Oc2nc(-c3ccc(OC)c(OC)c3)nc3c2cnn3C)cc1OC [Example 46] , give the reported pIC50.
7.03

---

So I've got a bunch of compounds here, and I need their IC50 values.
Answer in µM, number only, no unit symbol.

Report IC50 for Cn1ncc2c(Oc3ccc4[nH]ccc4c3)nc(-c3cccc(-c4ccccc4)c3)nc21 tested on PI3K-α (Homo sapiens).
2.87

Report IC50 for CC(C)c1ccc(-c2nc(Nc3ccc(C(N)=O)cc3)c3cnn(C)c3n2)cc1 tested on PI3K-α (Homo sapiens).
2.46

Report IC50 for Cn1ncc2c(Oc3ccc4[nH]ccc4c3)nc(-c3ccoc3)nc21 tested on PI3K-α (Homo sapiens).
1.05

Report IC50 for CC(=O)Nc1cccc(Nc2nc(-c3ccccc3)nc3c2cnn3C2CCN(Cc3ccccc3)CC2)c1 tested on PI3K-α (Homo sapiens).
8.31

---

So I've got a bunch of compounds here, and I need their IC50 values.

Report IC50 for COc1ccc(Nc2nc(-c3cccc(O)c3)nc3c2cnn3C2CCNCC2)cc1OC tested on PI3K-α (Homo sapiens, UniProt P42336).
Sequence (P42336 whole entry, species assumed): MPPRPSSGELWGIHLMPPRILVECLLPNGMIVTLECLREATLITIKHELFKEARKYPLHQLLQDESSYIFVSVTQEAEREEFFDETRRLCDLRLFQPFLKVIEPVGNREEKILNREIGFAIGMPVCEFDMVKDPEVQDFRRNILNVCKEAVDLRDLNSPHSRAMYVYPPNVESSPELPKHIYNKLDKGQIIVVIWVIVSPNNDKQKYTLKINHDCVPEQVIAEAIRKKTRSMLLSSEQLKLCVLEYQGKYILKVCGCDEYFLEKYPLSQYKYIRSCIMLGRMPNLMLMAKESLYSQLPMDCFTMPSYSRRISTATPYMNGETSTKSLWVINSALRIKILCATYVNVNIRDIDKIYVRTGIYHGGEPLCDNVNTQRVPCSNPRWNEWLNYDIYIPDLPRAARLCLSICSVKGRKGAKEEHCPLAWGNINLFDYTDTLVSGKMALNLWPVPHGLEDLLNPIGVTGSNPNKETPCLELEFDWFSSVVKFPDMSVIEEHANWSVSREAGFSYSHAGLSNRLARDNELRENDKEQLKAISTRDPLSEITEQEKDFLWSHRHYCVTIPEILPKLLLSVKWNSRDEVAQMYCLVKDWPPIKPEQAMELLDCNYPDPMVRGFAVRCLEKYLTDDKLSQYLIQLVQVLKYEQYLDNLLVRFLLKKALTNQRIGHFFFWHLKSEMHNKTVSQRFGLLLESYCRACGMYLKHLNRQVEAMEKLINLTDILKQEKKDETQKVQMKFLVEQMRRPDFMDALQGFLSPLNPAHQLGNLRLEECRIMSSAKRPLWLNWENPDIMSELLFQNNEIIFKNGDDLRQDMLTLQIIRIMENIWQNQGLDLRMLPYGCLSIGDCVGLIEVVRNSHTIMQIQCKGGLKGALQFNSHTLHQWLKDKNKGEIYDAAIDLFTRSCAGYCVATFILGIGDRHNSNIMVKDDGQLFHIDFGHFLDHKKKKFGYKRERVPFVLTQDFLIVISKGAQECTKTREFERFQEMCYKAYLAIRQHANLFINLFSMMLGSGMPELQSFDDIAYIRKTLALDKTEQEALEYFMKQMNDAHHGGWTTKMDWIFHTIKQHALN
Sequence (P27986 whole entry partner, species assumed): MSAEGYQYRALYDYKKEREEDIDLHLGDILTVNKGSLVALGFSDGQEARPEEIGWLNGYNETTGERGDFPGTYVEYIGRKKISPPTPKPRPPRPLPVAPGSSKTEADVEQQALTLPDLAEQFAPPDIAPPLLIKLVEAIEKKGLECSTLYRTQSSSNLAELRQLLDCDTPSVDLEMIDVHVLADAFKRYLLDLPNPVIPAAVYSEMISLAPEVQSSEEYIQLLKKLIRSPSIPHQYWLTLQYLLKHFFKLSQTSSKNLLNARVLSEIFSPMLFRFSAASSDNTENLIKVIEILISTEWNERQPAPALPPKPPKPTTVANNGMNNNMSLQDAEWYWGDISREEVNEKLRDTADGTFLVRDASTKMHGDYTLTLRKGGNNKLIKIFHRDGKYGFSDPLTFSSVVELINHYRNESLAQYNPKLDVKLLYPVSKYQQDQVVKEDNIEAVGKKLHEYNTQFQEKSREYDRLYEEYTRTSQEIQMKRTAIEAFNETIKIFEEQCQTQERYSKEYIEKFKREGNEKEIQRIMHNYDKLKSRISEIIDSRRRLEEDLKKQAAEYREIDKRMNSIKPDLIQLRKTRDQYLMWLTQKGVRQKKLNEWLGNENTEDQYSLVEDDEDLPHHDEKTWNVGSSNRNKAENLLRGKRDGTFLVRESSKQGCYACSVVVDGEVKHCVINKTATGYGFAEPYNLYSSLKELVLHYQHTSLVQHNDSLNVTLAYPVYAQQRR
> 10 µM

Report IC50 for Oc1cccc(-c2nc(Nc3ccc4[nH]ccc4c3)c3cnn(C4CCN(Cc5ccccc5)CC4)c3n2)c1 tested on PI3K-α (Homo sapiens, UniProt P42336).
> 10 µM

Report IC50 for COc1ccc(N(C)c2nc(-c3ccccc3)nc3c2cnn3C)cc1OC tested on PI3K-α (Homo sapiens, UniProt P42336).
> 9.75 µM

---

Target or test system: PI3K-γ (Homo sapiens)
pIC50: −log10 of the molar value.
Label Fulfilled when pIC50 is at or above 6; anything below gets Not fulfilled.

Decide: is the reported value of pIC50 for Cn1ncc2c(Oc3ccc4[nH]ccc4c3)nc(-c3cccc(OCc4ccccc4Cl)c3)nc21 [Example 69] equal to or greater than 6?
Not fulfilled

Decide: is the reported value of pIC50 for CN(c1ccc(C(N)=O)cc1)c1nc(-c2ccccc2)nc2c1cnn2C [Example 34] equal to or greater than 6?
Not fulfilled

Decide: is the reported value of pIC50 for COc1ccc(Oc2nc(-c3ccccc3)nc3c2cnn3C)cc1OC [Example 73] equal to or greater than 6?
Not fulfilled

Decide: is the reported value of pIC50 for CC(=O)Nc1ccc(Oc2nc(-c3ccc(N(C)C)cc3)nc3c2cnn3C)cc1 [Example 51] equal to or greater than 6?
Not fulfilled

Decide: is the reported value of pIC50 for CC(=O)Nc1ccc(Oc2nc(-c3cccc(-c4ccccc4)c3)nc3c2cnn3C)cc1 [Example 53] equal to or greater than 6?
Not fulfilled

Decide: is the reported value of pIC50 for CC(C)c1ccc(-c2nc(Nc3ccc(C(N)=O)cc3)c3cnn(C)c3n2)cc1 [Example 61] equal to or greater than 6?
Not fulfilled

Decide: is the reported value of pIC50 for Cc1noc(C)c1-c1nc(Nc2ccc(C(N)=O)cc2)c2cnn(C)c2n1 [Example 63] equal to or greater than 6?
Fulfilled

Decide: is the reported value of pIC50 for Oc1cccc(-c2nc(Nc3ccc4[nH]ccc4c3)c3cnn(C4CCNCC4)c3n2)c1 [Example 19] equal to or greater than 6?
Not fulfilled

Decide: is the reported value of pIC50 for COc1ccc(Oc2nc(-c3ccc(OC)c(OC)c3)nc3c2cnn3C)cc1OC [Example 46] equal to or greater than 6?
Fulfilled

Decide: is the reported value of pIC50 for CN(C)CCN(C)C(=O)c1ccc(NC(=O)Nc2ccc(Nc3nc(Nc4ccc(C(N)=O)cc4)c4cnn(C)c4n3)cc2)cc1 [Example 92] equal to or greater than 6?
Fulfilled

Decide: is the reported value of pIC50 for CC(=O)Nc1cccc(Nc2nc(-c3cccc(O)c3)nc3c2cnn3C2CCN(Cc3ccccc3)CC2)c1 [Example 10] equal to or greater than 6?
Not fulfilled

Decide: is the reported value of pIC50 for CN1CCN(C(=O)c2ccc(NC(=O)Nc3ccc(Nc4nc(Nc5ccc(C(N)=O)cc5)c5cnn(C)c5n4)cc3)cc2)CC1 [Example 81] equal to or greater than 6?
Fulfilled

Decide: is the reported value of pIC50 for Cn1ncc2c(Oc3ccc4[nH]ccc4c3)nc(-c3cccc(C#N)c3)nc21 [Example 43] equal to or greater than 6?
Not fulfilled

Decide: is the reported value of pIC50 for Cn1ncc2c(Nc3ccc(C(N)=O)cc3)nc(-c3ccccc3)nc21 [Example 11] equal to or greater than 6?
Not fulfilled

Decide: is the reported value of pIC50 for CN(C)C(=O)c1ccc(Nc2nc(Nc3ccc(NC(=O)Nc4cccnc4)cc3)nc3c2cnn3C)cc1 [Example 93] equal to or greater than 6?
Fulfilled
